EXPERIMENT NOTES: microsomal stability
Type: in vitro ADME, human
CONDITION CONTEXT: human, microsomes; read-out: microsomal stability (human) t½
RESULT TYPE: half-life (h)
Give just the numeric value; h need not be written.

Form field: reported half-life of CC(=O)N[C@H](Cc1ccc(O)cc1)C(=O)N[C@H](CCCNC(=N)N)C(=O)N[C@H](Cc1ccccc1)C(N)=O
4.75

* * *

EXPERIMENT NOTES: pharmacokinetics after single intravenous injection
CONDITION CONTEXT: mouse, in vivo, iv, 10 mg/kg
Where a SMILES comes first, the peptide text is derived from it. [ ]: non-standard residue; d: D form. The star is where a group is joined. Cbz = O=C(OCc1ccccc1)*
Parameter Vd: see the listing below.
Give just the numeric value; L/kg need not be written.

Form field: reported Vd of N=C(N)NCCC[C@@H](NC(=O)[C@@H](CCC(=O)O)NC(=O)[C@@H](Cc1ccc(O)cc1)NC(=O)OCc1ccccc1)C(=O)N[C@H](Cc1ccccc1)C(N)=O [z-DTP2, z-YERF-NH2] (Cbz-[dY][dE][dR][dF]-NH2)
14.6

# context switch: different compound, same Vd
Form field: reported Vd of CC(=O)N[C@H](Cc1ccc(O)cc1)C(=O)N[C@H](CCCNC(=N)N)C(=O)N[C@H](Cc1ccccc1)C(N)=O
2.8

* * *

EXPERIMENT NOTES: pharmacokinetics after single intravenous injection
CONDITION CONTEXT: mouse, in vivo, iv, 10 mg/kg
Where a SMILES comes first, the peptide text is derived from it. [ ]: non-standard residue; d: D form. The star is where a group is joined. Cbz = O=C(OCc1ccccc1)*
RESULT TYPE: clearance (mL/min/kg)
Give just the numeric value; mL/min/kg need not be written.

Form field: reported clearance of CC(=O)N[C@H](Cc1ccc(O)cc1)C(=O)N[C@H](CCCNC(=N)N)C(=O)N[C@H](Cc1ccccc1)C(N)=O
27.1

# context switch: different compound, same clearance
Form field: reported clearance of N=C(N)NCCC[C@@H](NC(=O)[C@@H](CCC(=O)O)NC(=O)[C@@H](Cc1ccc(O)cc1)NC(=O)OCc1ccccc1)C(=O)N[C@H](Cc1ccccc1)C(N)=O [z-DTP2, z-YERF-NH2] (Cbz-[dY][dE][dR][dF]-NH2)
78.1

* * *

TARGET OF ASSAY: GADD45β/MKK7 complex (Homo sapiens)
Construct: Full-length human (h)MKK7 was expressed as a protein fused to an N-terminal GST tag (GST-MKK7); made in house
EXPERIMENT NOTES: ELISA GADD45β/MKK7 competition assay
Format: binding
CONDITION CONTEXT: Table S3; peptide at 10 nM; read-out: % inhibition (ELISA)
Where a SMILES comes first, the peptide text is derived from it. [ ]: non-standard residue; d: D form. The star is where a group is joined. Cbz = O=C(OCc1ccccc1)*
Entry flag: Y if inhibition at 0.01 µM reaches 6%; N if it does not.

Could you verify whether the entry COC(=O)C[C@@H](NC(=O)[C@@H](Cc1ccc(O)cc1)NC(=O)OCc1ccccc1)C(=O)N[C@H](Cc1c[nH]cn1)C(=O)N[C@H](CCC(N)=O)C(N)=O [z-YD(O-methyl)HQ-NH2] (Cbz-[dY][dD](OMe)[dH][dQ]-NH2) shows inhibition at 0.01 µM of no less than 6%?
N

Could you verify whether the entry N=C(N)NCCC[C@@H](NC(=O)[C@@H](CCC(=O)O)NC(=O)[C@@H](Cc1ccc(O)cc1)NC(=O)OCC1c2ccccc2-c2ccccc21)C(=O)N[C@H](Cc1ccccc1)C(N)=O [Fmoc-YERF-NH2] shows inhibition at 0.01 µM of no less than 6%?
Y

Could you verify whether the entry NC(=O)CC[C@@H](NC(=O)[C@@H](Cc1c[nH]cn1)NC(=O)[C@@H](CC(=O)O)NC(=O)[C@@H](Cc1ccc(O)cc1)NC(=O)OCC1c2ccccc2-c2ccccc21)C(N)=O [Fmoc-YDFQ-NH2] shows inhibition at 0.01 µM of no less than 6%?
Y

Could you verify whether the entry CC(=O)N[C@H](Cc1ccc(O)cc1)C(=O)N[C@H](CC(=O)O)C(=O)N[C@H](Cc1c[nH]cn1)C(=O)N[C@H](CCC(N)=O)C(=O)N[C@H](CCCCNC(=O)OCc1ccccc1)C(N)=O [Ac-YDHQK(εZ)-NH2] (Ac-[dY][dD][dH][dQ][dK](Cbz)-NH2) shows inhibition at 0.01 µM of no less than 6%?
N

For the next question, use this compound.
Could you verify whether the entry NC(=O)[C@@H](Cc1ccccc1)NC(=O)[C@@H](Cc1c[nH]cn1)NC(=O)[C@@H](CC(=O)O)NC(=O)[C@@H](Cc1ccc(O)cc1)NC(=O)OCc1ccccc1 [z-DTP1, z-YDHF-NH2] (Cbz-[dY][dD][dH][dF]-NH2) shows inhibition at 0.01 µM of no less than 6%?
Y

* * *

TARGET OF ASSAY: GADD45β/MKK7 complex (Homo sapiens)
Construct: Full-length human (h)MKK7 was expressed as a protein fused to an N-terminal GST tag (GST-MKK7); made in house
EXPERIMENT NOTES: ELISA GADD45β/MKK7 competition assay
Format: binding
CONDITION CONTEXT: Figure 3A; before preincubation with human serum; read-out: IC50
Parameter IC50: see the listing below.
Give just the numeric value; nM need not be written.

Some solved entries appear below for comparison.
Form field: reported IC50 of CC(=O)N[C@H](Cc1ccc(O)cc1)C(=O)N[C@H](CC(=O)O)C(=O)N[C@H](Cc1c[nH]cn1)C(=O)N[C@H](Cc1ccccc1)C(N)=O
0.19

Form field: reported IC50 of CC(=O)N[C@H](Cc1ccc(O)cc1)C(=O)N[C@H](CCC(=O)O)C(=O)N[C@H](CCCNC(=N)N)C(=O)N[C@H](Cc1ccccc1)C(N)=O
0.22

# context switch: different compound, same IC50
Form field: reported IC50 of CC(=O)N[C@@H](Cc1ccc(O)cc1)C(=O)N[C@@H](CC(=O)O)C(=O)N[C@@H](Cc1c[nH]cn1)C(=O)N[C@@H](Cc1ccccc1)C(N)=O
0.4

* * *

EXPERIMENT NOTES: thermodynamic solubility
Format: physicochemical
CONDITION CONTEXT: in PBS, pH 7.4, for 14 days at 37 °C
RESULT TYPE: solubility thermodynamic (mg/mL)
Give just the numeric value; mg/mL need not be written.

Form field: reported solubility thermodynamic of CC(=O)N[C@H](Cc1ccc(O)cc1)C(=O)N[C@H](CCCNC(=N)N)C(=O)N[C@H](Cc1ccccc1)C(N)=O
169

* * *

TARGET OF ASSAY: GADD45β/MKK7 complex (Homo sapiens, UniProt O14733)
Construct: Full-length human (h)MKK7 was expressed as a protein fused to an N-terminal GST tag (GST-MKK7); made in house
EXPERIMENT NOTES: ELISA GADD45β/MKK7 competition assay
Type: binding
CONDITION CONTEXT: Table S3; peptide at 10 nM; read-out: % inhibition (ELISA)
Where a SMILES comes first, the peptide text is derived from it. [ ]: non-standard residue; d: D form. The star is where a group is joined. Cbz = O=C(OCc1ccccc1)*
Parameter inhibition at 0.01 µM: see the listing below.
Give just the numeric value; % need not be written.

Enter reported inhibition at 0.01 µM observed with GADD45β/MKK7 complex (Homo sapiens, UniProt O14733) for COC(=O)C[C@@H](NC(=O)[C@@H](Cc1ccc(O)cc1)NC(=O)OCc1ccccc1)C(=O)N[C@H](Cc1c[nH]cn1)C(=O)N[C@H](Cc1ccccc1)C(N)=O [z-YD(O-methyl)HF-NH2] (Cbz-[dY][dD](OMe)[dH][dF]-NH2)
84

Enter reported inhibition at 0.01 µM observed with GADD45β/MKK7 complex (Homo sapiens, UniProt O14733) for NC(=O)CC[C@@H](NC(=O)[C@@H](Cc1c[nH]cn1)NC(=O)[C@@H](CC(=O)O)NC(=O)[C@@H](Cc1ccc(O)cc1)NC(=O)OCc1ccccc1)C(N)=O [z-DNC, z-YDHQ-NH2] (Cbz-[dY][dD][dH][dQ]-NH2)
12

* * *

TARGET OF ASSAY: GST-hMKK7 (Homo sapiens)
Construct: Full-length human (h)MKK7 was expressed as a protein fused to an N-terminal GST tag (GST-MKK7); made in house
Sequence (O14733 1-419): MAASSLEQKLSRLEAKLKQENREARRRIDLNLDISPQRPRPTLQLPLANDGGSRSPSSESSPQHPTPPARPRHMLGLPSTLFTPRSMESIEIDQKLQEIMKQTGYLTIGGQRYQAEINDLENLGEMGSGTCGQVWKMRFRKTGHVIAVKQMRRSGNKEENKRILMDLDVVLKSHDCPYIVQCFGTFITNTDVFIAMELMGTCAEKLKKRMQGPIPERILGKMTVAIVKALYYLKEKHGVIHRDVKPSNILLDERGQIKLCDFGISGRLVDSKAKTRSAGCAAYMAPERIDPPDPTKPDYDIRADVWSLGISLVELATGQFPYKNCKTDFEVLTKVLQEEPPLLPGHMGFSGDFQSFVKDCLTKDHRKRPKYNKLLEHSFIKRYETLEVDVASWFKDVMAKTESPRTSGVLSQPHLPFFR
EXPERIMENT NOTES: tryptophan fluorescence quenching analysis
Assay type: binding
CONDITION CONTEXT: DTP3/MKK7 interaction
RESULT TYPE: pKd
The read-out pKd is expressed as -log10 of concentration in moles per litre.

Form field: reported pKd of CC(=O)N[C@H](Cc1ccc(O)cc1)C(=O)N[C@H](CCCNC(=N)N)C(=O)N[C@H](Cc1ccccc1)C(N)=O [DTP3, Ac-YRF-NH2]
7.19
